Data origin, for the record: patent US20260306453A1

- System name: 5-HT1E (Homo sapiens)
- Protocol: Radioligand binding in vitro assay, 5-HT1E
- Applied conditions: radioligand binding; read-out: Ki 5-HT1E
pKi: −log10 of the molar value.
Value type: pKi

[
  {
    "Molecule": "CC(C)N(CCc1c(Br)[nH]c2ccccc12)C(C)C [drawing 6]",
    "pKi": "< 5.00"
  },
  {
    "Molecule": "CN(C)CCc1c(Br)[nH]c2ccccc12 [drawing 2]",
    "pKi": "< 5.00"
  },
  {
    "Molecule": "CC(=O)Oc1cccc2[nH]c(Br)c(CCN(C)C)c12 [drawing 5]",
    "pKi": "< 5.00"
  }
]

Moving on to the next molecule.
Entry CN(C)CCc1c(Cl)[nH]c2ccccc12 [drawing 3] , tested on 5-HT1E (Homo sapiens), has a reported pKi of 5.41

====

- System name: 5-HT1E (Homo sapiens, UniProt P28566)
- Sequence (P28566 whole entry): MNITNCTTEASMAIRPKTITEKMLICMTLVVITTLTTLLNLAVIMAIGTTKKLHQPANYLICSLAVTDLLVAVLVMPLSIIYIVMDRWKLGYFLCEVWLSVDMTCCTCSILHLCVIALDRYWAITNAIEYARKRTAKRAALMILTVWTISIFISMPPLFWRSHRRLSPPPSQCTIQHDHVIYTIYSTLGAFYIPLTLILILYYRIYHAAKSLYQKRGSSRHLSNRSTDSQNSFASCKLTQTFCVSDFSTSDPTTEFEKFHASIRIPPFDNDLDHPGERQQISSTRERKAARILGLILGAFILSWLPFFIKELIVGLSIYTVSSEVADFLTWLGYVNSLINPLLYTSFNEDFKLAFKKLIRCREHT
- Protocol: Radioligand binding in vitro assay, 5-HT1E
Value type: Ki (nM)
// units = nM; emit number, no label

Reported Ki of CN(C)CCc1c[nH]c2ccccc12 [N,N-dimethyltryptamine, reference compound] : 104

====

- System name: UniProtKB Q99720
- Sequence (Q99720 whole entry): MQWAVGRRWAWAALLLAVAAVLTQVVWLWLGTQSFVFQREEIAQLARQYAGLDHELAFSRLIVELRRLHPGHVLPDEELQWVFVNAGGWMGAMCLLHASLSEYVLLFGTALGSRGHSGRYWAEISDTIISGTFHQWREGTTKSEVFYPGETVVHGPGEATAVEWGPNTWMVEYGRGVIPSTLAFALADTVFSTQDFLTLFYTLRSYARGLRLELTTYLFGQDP
- Protocol: Radioligand binding in vitro assay, Sigma 1
- Applied conditions: radioligand binding; read-out: Ki Sigma 1
Value type: pKi
In textbook form, pKi equals minus log to base ten of the concentration in mol/L.

Below are worked cases with known answers.
[
  {
    "Compound": "CN(C)CCc1c(Cl)[nH]c2ccccc12 [drawing 10]",
    "System name": "UniProtKB Q99720",
    "Experimental result": 6.20
  },
  {
    "Compound": "CN(C)CCc1c(Br)[nH]c2ccccc12 [drawing 9]",
    "System name": "UniProtKB Q99720",
    "Experimental result": 6.62
  }
]

Moving on to the next compound.
Reported pKi of CC(C)N(CCc1c(Br)[nH]c2ccccc12)C(C)C [drawing 13] : 6.59
